RUN PARAMETERS: 348.15 K; 101.33 kPa; Liquid; Vibrating tube method
VALUE KIND: mass density (kg/m3)

{"COMPOUND": "CCCCCCCC[P+](CC)(CC)CC.Cc1ncc([N+](=O)[O-])[n-]1 [triethyloctylphosphonium 2-methyl-5-nitroimidazolide]", "NUMERIC RESULT": 999.9}
{"COMPOUND": "CCCCCCCCCCCCCC[P+](CCCCCC)(CCCCCC)CCCCCC.O=[N+]([O-])c1c[n-]cn1 [trihexyl(tetradecyl)phosphonium 4-nitroimidazolide]", "NUMERIC RESULT": 911.2}
{"COMPOUND": "CCCCCCn1cc[n+](C)c1C.O=[N+]([O-])c1cn[n-]c1 [1-hexyl-2,3-dimethylimidazolium 4-nitropyrazolide]", "NUMERIC RESULT": 1087.4}
{"COMPOUND": "CC(=O)[O-].CCCCCCn1cc[n+](C)c1 [3-hexyl-1-methylimidazolium acetate]", "NUMERIC RESULT": 986.7}
{"COMPOUND": "CCCC[P+](CC)(CC)CC.O=[N+]([O-])c1cn[n-]c1 [butyltriethylphosphonium 4-nitropyrazolide]", "NUMERIC RESULT": 1048.4}
{"COMPOUND": "CCCCCC[n+]1ccn(C)c1.O=S(=O)([N-]S(=O)(=O)C(F)(F)F)C(F)(F)F", "NUMERIC RESULT": 1327.9}
{"COMPOUND": "CCCCCCCC[P+](CC)(CC)CC.O=[N+]([O-])c1cn[n-]c1 [triethyloctylphosphonium 4-nitropyrazolide]", "NUMERIC RESULT": 1001.5}
{"COMPOUND": "CCCC[P+](CC)(CC)CC.Cc1ncc([N+](=O)[O-])[n-]1 [butyltriethylphosphonium 2-methyl-5-nitroimidazolide]", "NUMERIC RESULT": 1036.4}
{"COMPOUND": "CCCCCCCCCCCCCC[P+](CCCCCC)(CCCCCC)CCCCCC.O=S(=O)([N-]S(=O)(=O)C(F)(F)F)C(F)(F)F", "NUMERIC RESULT": 1029.5}

====

Quick list: mass density per entry.
RUN PARAMETERS: 283.15 K; 101.33 kPa; Liquid; Vibrating tube method

{"COMPOUND": "CCCCCCCC[P+](CC)(CC)CC.O=[N+]([O-])c1cn[n-]c1 [triethyloctylphosphonium 4-nitropyrazolide]", "mass density, kg/m3": 1040.1}
{"COMPOUND": "CCCCCCC[P+](CC)(CC)CC.O=[N+]([O-])c1cn[n-]c1 [triethylheptylphosphonium 4-nitropyrazolide]", "mass density, kg/m3": 1047.1}
{"COMPOUND": "CCCC[S+]1CCCC1.O=S(=O)([N-]S(=O)(=O)C(F)(F)F)C(F)(F)F", "mass density, kg/m3": 1469}
{"COMPOUND": "CCCCCCCC[P+](CC)(CC)CC.O=S(=O)([N-]S(=O)(=O)C(F)(F)F)C(F)(F)F [triethyloctylphosphonium bis(trifluoromethylsulfonyl)imide]", "mass density, kg/m3": 1256.3}
{"COMPOUND": "CCCCCCCCCCCCCC[P+](CCCCCC)(CCCCCC)CCCCCC.N#Cc1nc[n-]c1C#N [trihexyl(tetradecyl)phosphonium 4,5-dicyanoimidazolide]", "mass density, kg/m3": 928.9}
{"COMPOUND": "CCCCCCn1cc[n+](C)c1.O=[N+]([O-])c1cn[n-]c1 [1-hexyl-3-methylimidazolium 4-nitropyrazolide]", "mass density, kg/m3": 1133.6}
{"COMPOUND": "CC[P+](CC)(CC)COCCOC.O=S(=O)([N-]S(=O)(=O)C(F)(F)F)C(F)(F)F", "mass density, kg/m3": 1373.9}
{"COMPOUND": "CCCCCCSC(N(C)C)=[N+](C)C.O=S(=O)([N-]S(=O)(=O)C(F)(F)F)C(F)(F)F", "mass density, kg/m3": 1352.2}
{"COMPOUND": "CCCCCCCCCC[P+](CC)(CC)CC.O=[N+]([O-])c1cn[n-]c1 [decyltriethylphosphonium 4-nitropyrazolide]", "mass density, kg/m3": 1020}
{"COMPOUND": "CCCC[P+](CC)(CC)CC.Cc1ncc([N+](=O)[O-])[n-]1 [butyltriethylphosphonium 2-methyl-5-nitroimidazolide]", "mass density, kg/m3": 1074.4}
{"COMPOUND": "CCCCCCCC[P+](CC)(CC)CC.O=[N+]([O-])c1c[n-]cn1 [triethyloctylphosphonium 4-nitroimidazolide]", "mass density, kg/m3": 1037.8}
{"COMPOUND": "CCCCCCCCCCCCCC[P+](CCCCCC)(CCCCCC)CCCCCC.Cc1ncc([N+](=O)[O-])[n-]1 [trihexyl(tetradecyl)phosphonium 2-methyl-5-nitroimidazolide]", "mass density, kg/m3": 948.1}
{"COMPOUND": "CCCC[P+](CC)(CC)CC.O=[N+]([O-])c1cn[n-]c1 [butyltriethylphosphonium 4-nitropyrazolide]", "mass density, kg/m3": 1087.9}
{"COMPOUND": "CC(=O)[O-].CCCCCCn1cc[n+](C)c1 [3-hexyl-1-methylimidazolium acetate]", "mass density, kg/m3": 1025.7}

====

RUN PARAMETERS: 338.15 K; 101.33 kPa; Liquid; Cone and plate viscometry

{"COMPOUND": "CCC[n+]1ccn(C)c1C.O=[N+]([O-])c1cn[n-]c1 [1,2-dimethyl-3-propylimidazolium 4-nitropyrazolide]", "UNIT SYMBOL": "mPa·s", "viscosity": 53}
{"COMPOUND": "CCCCCCCCCCCCCC[P+](CCCCCC)(CCCCCC)CCCCCC.Cc1ncc([N+](=O)[O-])[n-]1 [trihexyl(tetradecyl)phosphonium 2-methyl-5-nitroimidazolide]", "UNIT SYMBOL": "mPa·s", "viscosity": 125}
{"COMPOUND": "CCCCCCCCCCCCCC[P+](CCCCCC)(CCCCCC)CCCCCC.O=[N+]([O-])c1c[n-]cn1 [trihexyl(tetradecyl)phosphonium 4-nitroimidazolide]", "UNIT SYMBOL": "mPa·s", "viscosity": 96}
{"COMPOUND": "CCC=Cn1cc[n+](C)c1C.O=[N+]([O-])c1cn[n-]c1 [1-but-1-enyl-2,3-dimethylimidazolium 4-nitropyrazolide]", "UNIT SYMBOL": "mPa·s", "viscosity": 50}
{"COMPOUND": "CCCCCCCCCCCCCC[P+](CCCCCC)(CCCCCC)CCCCCC.N#Cc1nc[n-]c1C#N [trihexyl(tetradecyl)phosphonium 4,5-dicyanoimidazolide]", "UNIT SYMBOL": "mPa·s", "viscosity": 73}
{"COMPOUND": "CCCCCCn1cc[n+](C)c1C.O=[N+]([O-])c1cn[n-]c1 [1-hexyl-2,3-dimethylimidazolium 4-nitropyrazolide]", "UNIT SYMBOL": "mPa·s", "viscosity": 69}
{"COMPOUND": "CCCCCCCCCCCCCC[P+](CCCCCC)(CCCCCC)CCCCCC.O=[N+]([O-])c1cn[n-]c1 [trihexyl(tetradecyl)phosphonium 4-nitropyrazolide]", "UNIT SYMBOL": "mPa·s", "viscosity": 88}
{"COMPOUND": "CC(=O)[O-].CCCCCCn1cc[n+](C)c1 [3-hexyl-1-methylimidazolium acetate]", "UNIT SYMBOL": "mPa·s", "viscosity": 90}

====

RUN PARAMETERS: 293.15 K; 101.33 kPa; Liquid; Cone and plate viscometry
VALUE KIND: viscosity (mPa·s)

{"MOLECULE": "CCCC[S+]1CCCC1.O=S(=O)([N-]S(=O)(=O)C(F)(F)F)C(F)(F)F", "VALUE KIND": "viscosity", "UNIT SYMBOL": "mPa·s", "NUMERIC RESULT": 117}
{"MOLECULE": "CCCCCCn1cc[n+](C)c1C.O=[N+]([O-])c1cn[n-]c1 [1-hexyl-2,3-dimethylimidazolium 4-nitropyrazolide]", "VALUE KIND": "viscosity", "UNIT SYMBOL": "mPa·s", "NUMERIC RESULT": 1910}
{"MOLECULE": "CC[P+](CC)(CC)COCCOC.Cc1ncc([N+](=O)[O-])[n-]1", "VALUE KIND": "viscosity", "UNIT SYMBOL": "mPa·s", "NUMERIC RESULT": 189}
{"MOLECULE": "CCCCCCCC[P+](CC)(CC)CC.Cc1ncc([N+](=O)[O-])[n-]1 [triethyloctylphosphonium 2-methyl-5-nitroimidazolide]", "VALUE KIND": "viscosity", "UNIT SYMBOL": "mPa·s", "NUMERIC RESULT": 940}
{"MOLECULE": "CCOCc1n(CC)cc[n+]1C.O=S(=O)([N-]S(=O)(=O)C(F)(F)F)C(F)(F)F", "VALUE KIND": "viscosity", "UNIT SYMBOL": "mPa·s", "NUMERIC RESULT": 85}
{"MOLECULE": "CCCC[P+](CC)(CC)CC.Cc1ncc([N+](=O)[O-])[n-]1 [butyltriethylphosphonium 2-methyl-5-nitroimidazolide]", "VALUE KIND": "viscosity", "UNIT SYMBOL": "mPa·s", "NUMERIC RESULT": 569}
{"MOLECULE": "CC[P+](CC)(CC)COCCOC.O=[N+]([O-])c1cn[n-]c1", "VALUE KIND": "viscosity", "UNIT SYMBOL": "mPa·s", "NUMERIC RESULT": 116}
{"MOLECULE": "CCC[n+]1ccn(C)c1C.O=[N+]([O-])c1cn[n-]c1 [1,2-dimethyl-3-propylimidazolium 4-nitropyrazolide]", "VALUE KIND": "viscosity", "UNIT SYMBOL": "mPa·s", "NUMERIC RESULT": 1240}
